Test system: K. pneumoniae
Assay: Susceptibility testing (MIC, modified NCCLS method)
Type: cell-based, Klebsiella pneumoniae
Details: Klebsiella pneumoniae, ATCC700721; K. pneumoniae ATCC 700721; read-out: MIC
Experimental: The NCCLS (National Committee for Clinical Laboratory Standards) method to determine MIC's of antimicrobial compounds was modified for high-throughput screening. All stocks of tested compounds were prepared in either water or in dimethylsulfoxide (DMSO), depending on the solubility. […] Bacterial growth was determined by the increase of optical density at 600 nm using a microplate reader (Tecan SpectraFluor Plus).
Reported Metric: MIC (µg/mL)
Answer with a number only, understood to be in µg/mL.

Past entries and their recorded results:
O=C(Cc1cccs1)NC1C(=O)N2C(C(=O)O)=C(COC(=O)Oc3cc(Cl)ccc3Oc3ccc(Cl)cc3Cl)C[S+]([O-])[C@H]12 (stereo partly drawn) | 1.03
O=C(Cc1cccs1)NC1C(=O)N2C(C(=O)O)C(COC(=O)Oc3cc(Cl)ccc3Oc3ccc(Cl)cc3Cl)=CS[C@H]12 (stereo partly drawn) | 1.96

Prompt: Name the recorded MIC for O=C(COc1ccc(O)cc1)NC1C(=O)N2C(C(=O)O)=C(COc3cc(Cl)ccc3Oc3ccc(Cl)cc3Cl)CS[C@H]12 (stereo partly drawn) .
Response: 2

Prompt: Name the recorded MIC for O=C(Cn1cnnn1)NC1C(=O)N2C(C(=O)O)=C(COc3cc(Cl)ccc3Oc3ccc(Cl)cc3Cl)CS[C@H]12 (stereo partly drawn) .
Response: 1

Prompt: Name the recorded MIC for NC(C(=O)NC1C(=O)N2C(C(=O)O)=C(COc3cc(Cl)ccc3Oc3ccc(Cl)cc3Cl)CS[C@H]12)c1ccc(O)cc1 (stereo partly drawn) .
Response: 8

This collection of values is drawn from patent US20020115642A1.
